Give measured TGI for each item. Keep answers brief.
Tested on: SF-295 CNS
Experiment: NCI tumour cell line growth inhibition, 48 h

Ask: Reported TGI for COC(=O)/C(=C\c1c(C)[nH]c2ccccc12)S(=O)(=O)c1ccccc1 : what is it?
Reply: 15.7 µM

Ask: Form field: reported TGI of Cc1cc2c(F)c(Oc3ncnn4cc(OC[C@@H](C)OC(=O)[C@H](C)N)c(C)c34)ccc2[nH]1
Reply: 21.3 µM

Ask: Quick one: TGI for CC1(C)C(=O)N=C(N)N1C(=O)OCc1ccccc1 ?
Reply: > 100 µM

Ask: Any idea what TGI was measured for CC1[C@@H](OCc2ccccc2)COC(=O)N1Cc1ccccc1 (stereo partly specified) ?
Reply: > 100 µM

Ask: # TGI lookup, item COc1cc2[nH]c(-c3cccc(N(C)C)c3)cc(=O)c2cc1OC
Reply: > 21.4 µM

Ask: Record request: TGI value, item Cc1cc(S(=O)(=O)Nc2nnc(-c3ccccc3)c(-c3ccccc3)n2)c(SCc2ccccc2)cc1Cl
Reply: 38.5 µM

Ask: Request the reported TGI associated with C[N+]1(C)CCC(C#N)(c2ccccc2)CC1
Reply: > 100 µM

Ask: Any idea what TGI was measured for CCOC(CN=c1nc(N(C)C)ss1)OCC ?
Reply: 43.8 µM

Ask: Fill in the blank: the reported TGI of CCOC(=O)CC1=CSC2=NCCN12 is ____.
Reply: > 100 µM

Ask: What does the record list as TGI for COc1ccc(/C=C2/C[N+](C)(C)C/C(=C/c3ccc(OC)cc3)C2=O)cc1 ?
Reply: > 100 µM

Ask: # get_value(readout='TGI', item= CC1(O)/C(=N/O)CC2CC1C2(C)C (stereo unspecified) )
Reply: > 100 µM

----------
Tested on: IGROV1 ovarian
Experiment: NCI tumour cell line growth inhibition, 48 h; in the data active = GI50 below about 0.43 µM; inactive = the rest
Classes to choose from: T (active), F (inactive)

Ask: Recorded call for N.N.NC(CS)C(=O)[O-].NC(CS)C(=O)[O-].[Pt+4] (stereo unspecified) ?
Reply: F

Ask: Name the outcome recorded for CC(NNC(=S)N1CCCCCC1)c1ccc2ccccc2n1 (stereo unspecified) in the assay.
Reply: F

Ask: Hello, I am checking results. What call was entered for OCCCCC#Cc1ccccc1C#Cc1ccccc1C(F)(F)F ?
Reply: F

Ask: For Cc1cc2c(F)c(Oc3ncnn4cc(OC[C@@H](C)OC(=O)[C@H](C)N)c(C)c34)ccc2[nH]1 , which call appears in the assay record?
Reply: F

Ask: Short answer needed: outcome of this test for C[N+](C)(CCCCCC[N+](C)(C)CCCN1C(=O)c2cc3ccccc3cc2C1=O)CCCN1C(=O)c2ccccc2C1=O ?
Reply: F

Ask: Which outcome was assigned to CC1=Cc2cc3[n-]c(cc4nc(cc5[n-]c(cc1n2)cc5C)C(C)=C4CCC(=O)O)c(CCC(=O)O)c3C.[Pd+2] in this test?
Reply: F

Ask: Any idea what this test logged for CCN(CC)CCOc1ccc(/C=C2\CC3C4CC=C5C[C@@H](N6CCCC6)CC[C@]5(C)C4CC[C@]3(C)[C@H]2O)cc1OC (stereo partly specified) ?
Reply: F

Ask: Write down the call the test reported for this compound. Item: O=[N+]([O-])/C=C/c1c[nH]c2ccccc12
Reply: F

Ask: How did this test come out for Cc1ccc2c(N)c(C(=O)N[C@H]3CCc4cc(N5CC6CCC(C5)N6)ccc4C3)sc2n1 ?
Reply: T

Ask: So what was the verdict on CCSc1nc(N=Cc2cccs2)c2cn[nH]c2n1 in this test?
Reply: F

Ask: Hi team, can someone confirm the assay call for N=C(N)CCCCCCCCC(=N)N ?
Reply: F

----------
Tested on: SF-539 CNS
Experiment: NCI tumour cell line growth inhibition, 48 h
measured.attribute: TGI

Ask: What measured TGI goes with O=C1c2ccccc2-c2c1c1ccccc1c(=O)n2CCNCCNCCn1c2c(c3ccccc3c1=O)C(=O)c1ccccc1-2 ?
Reply: 12.3 µM

Ask: Form field: reported TGI of CN(C)CCNc1ccc2c(=O)n(CCN(C)C)c(=O)n3c4ccc(N)cc4c(=O)c1c23
Reply: 0.482 µM

Ask: Can you look up the measured TGI of c1ccc(CCN(Cc2nc3ccccc3[nH]2)Cc2nc3ccccc3[nH]2)cc1 for me?
Reply: 38.9 µM

Ask: Fill blank: measured TGI of the compound CC1NOC(=O)C1N=Nc1ccccc1Cl (stereo not given) is ____.
Reply: > 100 µM

Ask: Field request: TGI | item: C[C@H]1CCC/C=C/[C@@H]2C[C@H](O)C[C@H]2[C@H](O)[C@@H](S(=O)CCN(C)C)CC(=O)O1 (stereo not given in full)
Reply: > 100 µM

----------
Give TGI for every item shown.
Tested on: HCC-2998 colon
Assay: NCI tumour cell line growth inhibition, 48 h

Ask: Identify the measured TGI of COc1cc(/C=C/C(=O)c2ccc(Cl)cc2)ccc1OS(=O)(=O)c1ccc(C)cc1 for HCC-2998 colon.
Reply: 26.7 µM

Ask: Request body: readout TGI, system HCC-2998 colon, query S=C(Nc1ccc(Cl)cc1)Nc1ccc(-c2nc3ccccc3[nH]2)cc1 . Return the value.
Reply: 2.69 µM

Ask: TGI of O=C1/C(=C\c2cccc(Oc3ccccc3)c2)SC(c2ccccc2)N1c1ccc(Cl)cc1 (configuration not stated) on HCC-2998 colon?
Reply: > 100 µM

Ask: Form field - read-out: TGI; system: HCC-2998 colon; submitted item: C[N+]1(C)CCC(C#N)(c2ccccc2)CC1
Reply: > 100 µM

Ask: // lookup TGI | system=HCC-2998 colon | key= COc1ccc(SC(C)(SC)c2ccccn2)c(OC)n1 (configuration not stated)
Reply: > 100 µM

Ask: Provide value of TGI for this record tested with HCC-2998 colon: CCCNC(=S)/N=C\c1c(O)c2ccccc2oc1=O
Reply: > 100 µM

Ask: Query for HCC-2998 colon: what TGI does the record show for O=C(O)c1cc2c(cn1)[nH]c1ccccc12 ?
Reply: > 100 µM

Ask: Look up TGI with HCC-2998 colon for this compound: O=[N+]([O-])c1cccc2nccc(NCC(O)CO)c12 (configuration not stated)
Reply: 25.8 µM

Ask: API: value(readout=TGI, system=HCC-2998 colon) for record CC(=O)O[C@H]1C(=O)[C@@]2(C)[C@H]([C@H](OC(=O)C3CCCCC3)[C@]3(O)C[C@H](OC(=O)[C@H](O)[C@@H](NC(=O)C4CCCCC4)C4CCCCC4)C(C)=C1C3(C)C)[C@]1(OC(C)=O)CO[C@@H]1C[C@@H]2O
Reply: 0.27 µM

Ask: Report TGI for O=C(Nc1ncc(Cc2ccccc2Cl)s1)c1ccc2c(c1)OCCO2 tested on HCC-2998 colon.
Reply: > 55.5 µM

Ask: Could you share what TGI was measured for Cc1cc(C)nc(Nc2nc3ccc([N+](=O)[O-])cc3[nH]2)n1 , tested on HCC-2998 colon?
Reply: > 100 µM

Ask: Short answer please: TGI, HCC-2998 colon, entry O=C(Nc1ccc(Cl)cc1)c1cc2ccccc2cc1O
Reply: 7.65 µM

Ask: Give HCC-2998 colon TGI for CC(c1cccc2ccccc12)/[N+]([O-])=C/c1ccccc1 (configuration not stated)
Reply: > 100 µM

Ask: Provide value of TGI for this record tested with HCC-2998 colon: COc1c(O)ccc2c1CN1CCc3cc4c(cc3C1C2)OCO4 (configuration not stated)
Reply: > 100 µM

Ask: Form field: TGI recorded for CC(C)CCC[C@@H](C)C1CCC2[C@@H]3CCC4CC(CCC=C(c5cc(Cl)c(OC(=O)c6ccccc6)c(C(=O)O)c5)c5cc(Cl)c(OC(=O)c6ccccc6)c(C(=O)O)c5)CC[C@]4(C)C3CC[C@@]21C (some centres not stated) with HCC-2998 colon (enter value)
Reply: > 100 µM

Ask: Hi! What's the reported TGI for CCSc1nc(N=Cc2cccs2)c2cn[nH]c2n1 on HCC-2998 colon?
Reply: 11.3 µM

Ask: Form: Entry = C/C=C(\C)C(=O)O[C@H]1C=CC(=O)O[C@H]1CNC(=O)[C@H](C)O | System = HCC-2998 colon | TGI = ____
Reply: 33.7 µM

Ask: Requested read-out TGI, target or system HCC-2998 colon, entry CN(C)CCNc1ccc2c(=O)n(CCN(C)C)c(=O)n3c4ccc(N)cc4c(=O)c1c23
Reply: 0.809 µM

Ask: # value lookup — system HCC-2998 colon, readout TGI, item CC(=O)OC1COC(n2c(N)c(C#N)c(C)c(C#N)c2=S)C(OC(C)=O)C1OC(C)=O (configuration not stated)
Reply: > 100 µM

Ask: Give the reported TGI for O=C(c1ccccc1)c1c(C(=O)c2ccccc2)c(-c2ccccc2)c2c(-c3ccccc3)sc(-c3ccccc3)c2c1-c1ccccc1 (system: HCC-2998 colon).
Reply: > 100 µM

Ask: Tell me reported TGI for CCCCCc1c2nc(c(CCCCC)c3ccc([nH]3)c(CCCCC)c3ccc([nH]3)c(CCCCC)c3nc1C=C3)C=C2 , tested with HCC-2998 colon.
Reply: > 100 µM

Ask: What measured TGI is associated with O=C(c1ccncc1)n1nc(-c2ccccc2)c(N=Nc2ccc([N+](=O)[O-])cc2)c1-c1ccccc1 on HCC-2998 colon?
Reply: > 100 µM
